Cited source for all entries: the supplement of paper PMC4466140

biological target: AgSla1-D1-D2; assay: SPOT peptide array binding signal intensity (averaged, normalized) (arbitrary units (background-subtracted, floor 0; scale differs between SH3 domains)); higher = stronger binding of the SH3 domain to the peptide
# cutoff 200 applies to SPOT peptide array binding signal intensity; >= gives t, < gives f

| BINDER | GROUP |
| --- | --- |
| QLLNPNRRAPRRPLS | f |
| PSRRDSLSIPRAVDA | f |
| NHSRSLFSLPGNQQS | f |
| HVRRSILALPLGVLL | f |
| PPPPPPPPPPPLPQS | f |
| RKNRAPPQRPRFNRD | t |
